- target_or_system: human EGFR exon 20 insertion ASV (V769_D770insASV) (Homo sapiens, UniProt P00533, INS769ASV)
- Sequence (P00533 with tags, fused parts or gaps INS769ASV): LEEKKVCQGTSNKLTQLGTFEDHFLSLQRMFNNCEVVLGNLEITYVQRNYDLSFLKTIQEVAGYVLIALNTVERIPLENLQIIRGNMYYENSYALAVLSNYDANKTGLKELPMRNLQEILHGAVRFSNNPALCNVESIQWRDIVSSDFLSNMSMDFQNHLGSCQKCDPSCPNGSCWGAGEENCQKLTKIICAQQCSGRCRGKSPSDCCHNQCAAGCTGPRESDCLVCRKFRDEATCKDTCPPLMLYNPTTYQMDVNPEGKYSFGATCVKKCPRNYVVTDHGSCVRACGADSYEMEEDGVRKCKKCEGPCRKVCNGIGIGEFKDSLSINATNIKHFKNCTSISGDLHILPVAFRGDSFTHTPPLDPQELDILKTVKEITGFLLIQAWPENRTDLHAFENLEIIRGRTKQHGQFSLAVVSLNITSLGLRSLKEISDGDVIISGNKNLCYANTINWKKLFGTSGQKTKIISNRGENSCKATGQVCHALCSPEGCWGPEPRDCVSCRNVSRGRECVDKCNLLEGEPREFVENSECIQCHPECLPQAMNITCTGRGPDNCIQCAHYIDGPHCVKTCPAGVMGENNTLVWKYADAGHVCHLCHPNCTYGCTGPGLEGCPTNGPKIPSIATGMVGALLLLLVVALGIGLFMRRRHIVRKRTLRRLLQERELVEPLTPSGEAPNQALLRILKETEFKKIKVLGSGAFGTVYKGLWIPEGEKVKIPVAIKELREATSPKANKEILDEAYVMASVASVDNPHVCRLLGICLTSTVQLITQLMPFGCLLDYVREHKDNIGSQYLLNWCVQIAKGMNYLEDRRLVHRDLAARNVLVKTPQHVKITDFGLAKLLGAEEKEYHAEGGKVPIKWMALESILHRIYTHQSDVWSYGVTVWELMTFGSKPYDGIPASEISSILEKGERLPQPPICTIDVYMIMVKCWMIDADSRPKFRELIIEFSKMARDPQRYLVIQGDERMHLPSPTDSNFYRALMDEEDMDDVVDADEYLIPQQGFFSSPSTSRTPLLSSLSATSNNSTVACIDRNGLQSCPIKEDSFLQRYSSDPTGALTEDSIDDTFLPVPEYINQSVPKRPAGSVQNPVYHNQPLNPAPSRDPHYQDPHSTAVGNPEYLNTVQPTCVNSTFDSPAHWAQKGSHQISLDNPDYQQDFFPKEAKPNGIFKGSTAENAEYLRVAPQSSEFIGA
- assay_name: Ba/F3-EGFR-Exon20-ASV cell anti-proliferative assay (CellTiter 96 MTS, 72 h)
- assay_context: Ba/F3-EGFR-Exon20-ASV cells
pIC50: −log10 of the molar value.
Measured pIC50 values are reported for all entries that follow.

Worked cases, pIC50 given:
compound	pIC50
C=CC(=O)Nc1cc(Nc2ncc(C(=O)NCCO)c(-c3cn4c5c(cccc35)CCC4)n2)c(OC)cc1N(C)CCN(C)C [Example 48]	6.00 to 6.30
C=CC(=O)Nc1cc(Nc2ncc(F)c(-c3cn4c5c(cccc35)CCC4)n2)c(OC)cc1N(C)CCN(C)C [Example 17]	6.30 to 7.00
C=CC(=O)Nc1cc(Nc2ncc(N3CCCC3)c(-c3cn4c5c(cccc35)CCC4)n2)c(OC)cc1N(C)CCN(C)C [Example 106]	6.30 to 7.00
C=CC(=O)Nc1cc(Nc2ncc(-c3nccn3C)c(-c3cn4c5c(cccc35)CCC4)n2)c(OC)cc1N(C)CCN(C)C [Example 98]	> 7.00
C=CC(=O)Nc1cc(Nc2ncc(CCC(O)CC)c(-c3cn4c5c(cccc35)CCC4)n2)c(OC)cc1N(C)CCN(C)C (stereo not shown) [Example 38]	> 7.00
C=CC(=O)Nc1cc(Nc2ncc(-c3cnn(C)c3)c(-c3cn4c5c(cccc35)CCC4)n2)c(OC)cc1N(C)CCN(C)C [Example 49]	> 7.00

The measured pIC50 associated with C=CC(=O)Nc1cc(Nc2ncc(-c3cnn(CC)c3)c(-c3cn4c5c(cccc35)CCC4)n2)c(OC)cc1N(C)CCN(C)C [Example 99] reads > 7.00
